tested on: HuP-T4; assay: cells; type: functional, cell-based; conditions: Homo sapiens
Description: SANGER: Inhibition of human HuP-T4 cell growth in a cell viability assay.
Quick list: IC50 per entry.

These recorded examples may help you get a feel for the data.
Molecule: O=S(=O)(O)c1ccc2cc(/N=N/c3cc(S(=O)(=O)O)c4cccnc4c3O)ccc2c1
Quantity Measured: IC50
Data Value: > 16 µM

Molecule: Cc1ccc(C(=O)Nc2ccc(CN3CCN(C)CC3)c(C(F)(F)F)c2)cc1C#Cc1cnc2cccnn12 [PONATINIB]
Quantity Measured: IC50
Data Value: > 0.512 µM

Molecule: COc1ccc(-c2cc3nccn3c(Nc3ncccc3C(N)=O)n2)cc1OC
Quantity Measured: IC50
Data Value: 7.99 µM

Input: Write IC50 of NC1(c2ccc(-c3nc4ccn5c(=O)[nH]nc5c4cc3-c3ccccc3)cc2)CCC1 [MK-2206] ; system used: HuP-T4;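 also: cell viability assay measuring how much HuP-T4 cell growth is inhibited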
Output: > 4 µM

Input: Write down measured IC50 (HuP-T4) for this molecule. NC(=O)c1ccc(N(C(N)=O)c2c(F)cccc2F)nc1-c1ccc(F)cc1F [VX-702]
Output: > 2 µM

----------
tested on: LU-165; assay: cells; assay type: functional, cell-based, Homo sapiens; conditions: Homo sapiens, LU-165
Description: SANGER: Inhibition of human LU-165 cell growth in a cell viability assay.
Quantity Measured: IC50 (µM)
A number alone suffices; assume µM.

Molecule: Nc1ccccc1NC(=O)c1ccc(CNC(=O)OCc2cccnc2)cc1 [ENTINOSTAT]
Test Target: LU-165
Data Value: 0.618

// next item, IC50 requested
Input: Find the measured IC50 of COc1ccc(-c2cc3nccn3c(Nc3ncccc3C(N)=O)n2)cc1OC and report it.
Output: 7.97

----------
tested on: TE-8; assay: cells; assay type: functional, cell-based, Homo sapiens; details: Homo sapiens, TE-8;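 also: growth inhibition of TE-8 cells, measured with a cell viability readout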
Description: SANGER: Inhibition of human TE-8 cell growth in a cell viability assay.
Where a SMILES comes first, the peptide text is derived from it. The star is where a group is joined. Cbz = O=C(OCc1ccccc1)*
Measured IC50 accompanies every entry in the list below.

Compound: CO[C@@H]1[C@H](N(C)C(=O)c2ccccc2)C[C@H]2O[C@]1(C)n1c3ccccc3c3c4c(c5c6ccccc6n2c5c31)C(=O)NC4
Data Value: > 512 nM

Compound: CC(C)C[C@@H](C=O)NC(=O)[C@H](CC(C)C)NC(=O)[C@H](CC(C)C)NC(=O)OCc1ccccc1 [MG-132] (Cbz-Leu-Leu-Leu-aldehyde)
Data Value: 343 nM

Input: # return recorded IC50 for entry O=C(NCCCNc1nc(Nc2cccc(NC(=O)N3CCCC3)c2)ncc1I)c1cccs1
Output: 3550 nM

----------
system: HCC1569; assay: cells; assay type: functional, cell-based; conditions: Homo sapiens;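 also: growth inhibition of human HCC1569 cells, read out with a cell viability assay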
Description: SANGER: Inhibition of human HCC1569 cell growth in a cell viability assay.
pIC50: −log10 of the molar value.
Quantity Measured: pIC50

Smiles Entry: CC1=C(/C=C/C(C)=C/C=C/C(C)=C/C(=O)O)C(C)(C)CCC1
Quantity Measured: pIC50
Data Value: < 5.00

Input: Please report pIC50 for the following compound: CN(C)CCOc1ccc(-c2nc(-c3ccncc3)c(-c3ccc4c(c3)CC/C4=N\O)[nH]2)cc1
Output: < 5.30

Input: Kindly indicate its recorded pIC50. Item: NC(=O)c1ccc(N(C(N)=O)c2c(F)cccc2F)nc1-c1ccc(F)cc1F
Output: < 5.70

----------
test system: COLO-678; experiment: cells; format: functional, cell-based; details: Homo sapiens
Description: SANGER: Inhibition of human COLO-678 cell growth in a cell viability assay.
// IC50 lookup, one value per entry

Reference set (2 entries):
Molecule: NC1(c2ccc(-c3nc4ccn5c(=O)[nH]nc5c4cc3-c3ccccc3)cc2)CCC1 [MK-2206]
IC50: > 4 µM
//
Molecule: O=C(NCCCNc1nc(Nc2cccc(NC(=O)N3CCCC3)c2)ncc1I)c1cccs1 [BX-795]
IC50: > 5 µM

Input: Give IC50 for CN(C)CCOc1ccc(-c2nc(-c3ccncc3)c(-c3ccc4c(c3)CC/C4=N\O)[nH]2)cc1 [SB590885]
Output: > 5 µM

Input: Indicate the recorded IC50 value for this molecule: C/C(=C\c1csc(C)n1)[C@@H]1C[C@@H]2O[C@]2(C)CCC[C@H](C)[C@H](O)[C@@H](C)C(=O)C(C)(C)[C@@H](O)CC(=O)O1 [PATUPILONE]
Output: > 0.032 µM

Input: Report IC50 for OC[C@H](Cc1ccccc1)Nc1nc(Oc2ccc3c(c2)CCC3)nc2c1ncn2Cc1ccc(-c2ccccc2)cc1
Output: > 10.2 µM

Input: Indicate its recorded IC50; the molecule in question is Cc1ccc(-n2nc(C(C)(C)C)cc2NC(=O)Nc2ccc(OCCN3CCOCC3)c3ccccc23)cc1 [DORAMAPIMOD]
Output: > 10 µM

From: ChEMBL document CHEMBL1201861
